Molecular target: Prostaglandin G/H synthase 2 (Homo sapiens, UniProt P35354)
Sequence (P35354 whole entry): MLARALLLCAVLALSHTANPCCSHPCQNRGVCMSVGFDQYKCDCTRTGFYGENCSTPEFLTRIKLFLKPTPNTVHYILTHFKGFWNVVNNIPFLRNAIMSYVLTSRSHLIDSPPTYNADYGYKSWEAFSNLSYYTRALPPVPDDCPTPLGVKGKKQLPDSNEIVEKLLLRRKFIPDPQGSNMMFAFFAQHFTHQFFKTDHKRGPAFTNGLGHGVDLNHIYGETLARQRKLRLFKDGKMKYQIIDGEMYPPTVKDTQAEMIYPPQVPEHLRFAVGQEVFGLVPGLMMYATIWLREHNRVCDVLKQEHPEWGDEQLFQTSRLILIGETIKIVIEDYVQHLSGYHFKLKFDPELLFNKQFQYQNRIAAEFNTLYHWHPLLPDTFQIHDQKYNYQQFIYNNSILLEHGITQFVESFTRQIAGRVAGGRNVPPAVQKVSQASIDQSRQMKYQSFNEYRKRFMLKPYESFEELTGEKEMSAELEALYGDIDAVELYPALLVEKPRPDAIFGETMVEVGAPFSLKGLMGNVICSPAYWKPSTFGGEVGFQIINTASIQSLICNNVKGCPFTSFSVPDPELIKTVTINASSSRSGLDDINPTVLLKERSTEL
Assay: Inhibition of human recombinant COX-2 assessed as reduction in peroxidase activity using arachidonic acid as substrate preincubated for 60 mins followed by substrate addition for 2 secs by ADPH based fluorometric analysis
Hi there, I'd appreciate the recorded IC50 for every entry that follows.
Please give a number only; it is taken to be in µM.

q: Complete the entry with IC50 for COCCOc1nc(OCC(C)(C)O)c(-c2ccc(S(C)(=O)=O)cc2)cc1CO
a: 18.2

q: Complete the entry with IC50 for CCCCOc1nc(OCC(C)(C)O)c(-c2ccc(S(N)(=O)=O)cn2)cc1CO
a: 0.45

q: Complete the entry with IC50 for CC(C)(O)COc1nc(OCCCC(F)(F)F)c(CO)cc1-c1ccc(S(C)(=O)=O)cc1
a: 0.36

q: Complete the entry with IC50 for CCc1cnc(OCC(C)(C)O)c(-c2ccc(S(C)(=O)=O)cc2)c1
a: 3.24

q: Complete the entry with IC50 for CC(C)(O)COc1nc(OCCC(F)(F)F)c(CO)cc1-c1ccc(S(C)(=O)=O)cc1
a: 0.5

q: Complete the entry with IC50 for CCCOc1nc(OCC(C)(C)O)c(-c2ccc(S(C)(=O)=O)cc2)cc1CO
a: 0.84

q: Complete the entry with IC50 for CC(C)Oc1nc(OCC(C)(C)O)c(-c2ccc(S(C)(=O)=O)cc2)cc1CO
a: 4.1

q: Complete the entry with IC50 for COc1nc(OCC(C)(C)O)c(-c2ccc(S(C)(=O)=O)cc2)cc1CO
a: 17.1
